molecular target: ZFP SBS#1337 (synthetic); assay: EMSA; conditions: tags: MBP fusion
Sequence (chain, as listed by the source): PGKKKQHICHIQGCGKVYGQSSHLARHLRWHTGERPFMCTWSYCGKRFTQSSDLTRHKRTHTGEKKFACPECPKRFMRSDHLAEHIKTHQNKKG
Attribute measured: Kd (pM)

* CGGGCTGGA (dsDNA) DNA 1: CGGGCTGGA DNA 2: TCCAGCCCG | 235

The measured values listed here are drawn from patent US20030068675.
